biological target: BioA derived from S. lydicus (SlBioA); assay: BioA-BioD coupled enzyme assay with KAPA as substrate, LC-MS readout
valueType: IC50
Hi, when you answer, please include the unit after the number. Thanks!

What does the data say about its IC50? Entry: `C[C@H](N)C(=O)CCCC[C@@H](C)C(=O)O`
6.5 µM

----------
target: BioA (EcBioA) (Escherichia coli, UniProt P12995)
Sequence (P12995 whole entry): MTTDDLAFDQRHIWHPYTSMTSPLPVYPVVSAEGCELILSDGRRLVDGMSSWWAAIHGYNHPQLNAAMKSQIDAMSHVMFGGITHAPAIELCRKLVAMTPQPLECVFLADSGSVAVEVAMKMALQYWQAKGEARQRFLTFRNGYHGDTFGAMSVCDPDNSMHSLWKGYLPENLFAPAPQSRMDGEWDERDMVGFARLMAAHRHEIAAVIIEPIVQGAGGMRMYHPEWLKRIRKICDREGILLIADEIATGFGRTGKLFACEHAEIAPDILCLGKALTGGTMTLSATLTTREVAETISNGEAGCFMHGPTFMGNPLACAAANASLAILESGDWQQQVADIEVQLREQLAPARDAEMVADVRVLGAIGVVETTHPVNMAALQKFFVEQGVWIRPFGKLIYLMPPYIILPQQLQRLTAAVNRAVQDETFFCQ
valueType: Ki (µM)
One number for each entry, in µM.

What does the data say about its Ki? Entry: C[C@H](N)C(=O)CCCC[C@@H](C)C(=O)O [compound 5, α-methyl-KAPA]
14.9
